Consider the following compounds and their measured IC50 readings.
- target-desc: Full-length USP19 (Homo sapiens, UniProt O94966)
- Sequence (O94966 1-1318): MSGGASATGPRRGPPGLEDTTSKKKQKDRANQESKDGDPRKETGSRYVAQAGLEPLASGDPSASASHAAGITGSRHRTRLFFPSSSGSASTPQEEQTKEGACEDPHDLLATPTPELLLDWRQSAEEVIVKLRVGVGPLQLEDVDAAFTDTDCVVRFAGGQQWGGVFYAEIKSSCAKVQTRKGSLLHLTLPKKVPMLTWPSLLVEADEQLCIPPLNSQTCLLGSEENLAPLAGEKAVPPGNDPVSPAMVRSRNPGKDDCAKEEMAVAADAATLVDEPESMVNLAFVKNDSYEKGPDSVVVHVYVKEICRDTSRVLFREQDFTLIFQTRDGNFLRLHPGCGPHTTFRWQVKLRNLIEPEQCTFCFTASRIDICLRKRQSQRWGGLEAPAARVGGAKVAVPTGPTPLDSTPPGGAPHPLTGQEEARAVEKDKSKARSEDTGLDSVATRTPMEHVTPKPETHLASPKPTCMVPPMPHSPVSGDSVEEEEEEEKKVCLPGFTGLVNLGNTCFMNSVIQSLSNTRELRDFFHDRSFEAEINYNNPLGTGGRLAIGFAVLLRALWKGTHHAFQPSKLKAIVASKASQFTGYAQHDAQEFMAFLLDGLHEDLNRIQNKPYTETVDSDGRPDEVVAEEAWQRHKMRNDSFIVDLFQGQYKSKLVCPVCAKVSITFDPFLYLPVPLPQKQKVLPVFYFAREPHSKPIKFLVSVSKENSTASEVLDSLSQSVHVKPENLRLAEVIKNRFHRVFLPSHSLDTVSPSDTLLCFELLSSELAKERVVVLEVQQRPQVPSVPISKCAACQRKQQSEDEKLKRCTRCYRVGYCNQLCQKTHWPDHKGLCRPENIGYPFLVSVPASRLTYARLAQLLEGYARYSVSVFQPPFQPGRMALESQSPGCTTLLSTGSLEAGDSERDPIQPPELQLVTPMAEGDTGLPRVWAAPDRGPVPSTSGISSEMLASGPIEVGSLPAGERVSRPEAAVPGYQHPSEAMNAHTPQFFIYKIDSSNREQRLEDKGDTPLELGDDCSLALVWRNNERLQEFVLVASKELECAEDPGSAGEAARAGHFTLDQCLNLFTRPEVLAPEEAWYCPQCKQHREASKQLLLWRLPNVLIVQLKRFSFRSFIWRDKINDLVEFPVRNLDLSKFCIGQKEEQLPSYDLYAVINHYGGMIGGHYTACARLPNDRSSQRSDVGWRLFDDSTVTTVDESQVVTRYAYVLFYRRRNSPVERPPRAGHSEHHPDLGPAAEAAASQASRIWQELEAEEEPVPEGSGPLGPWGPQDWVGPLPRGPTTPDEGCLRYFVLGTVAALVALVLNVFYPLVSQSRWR

Reported IC50 for O=C(N1CCC(O)(Cn2cnc3ccc(F)cc3c2=O)C2(CCCC2)C1)N1CCNC[C@H]1c1ccccc1 (stereo partly drawn) was < 500 nM

The recorded IC50 for O=C(N1CC[C@@](O)(Cn2cnc(-c3cccc(F)c3)cc2=O)C2(CCCC2)C1)N1CCNC[C@H]1c1cc(F)ccc1F is < 500 nM

Short answer for O=C(NCc1ccccc1)N1CCC(O)(Cn2cnc(-c3ccccc3F)cc2=O)C2(CC2)C1 (stereo not drawn) : IC50 was 50000 to 250000 nM

Value of measured IC50 for the entry C[C@H](CC(F)(F)F)C(=O)N1CCC(O)(Cn2ccc3nc(N4CCOCC4)ncc3c2=O)C2(CCCC2)C1 (stereo partly drawn) : 500 to 5000 nM

So, O=C(N1CC(C2CC2)C1)N1CCC(O)(Cn2cnc(-c3ccccc3)cc2=O)C2(CCCC2)C1 (stereo not drawn) ? Its IC50 was 5000 to 50000 nM

----------
- target-desc: Full-length USP19 (Homo sapiens, UniProt O94966)
# maps each entry to its IC50

INSERT INTO assay_data (compound, target_desc, observed_result) VALUES
  ('C[C@H](CC(F)(F)F)C(=O)N1CCC(O)(Cn2cnc3nc(N4CCN(C)CC4)ncc3c2=O)C2(CCCC2)C1 (some centres unmarked)', 'Full-length USP19 (Homo sapiens, UniProt O94966)', '500 to 5000 nM'),
  ('Cn1nccc1-c1cc(=O)n(C[C@]2(O)CCN(C(=O)N3CCNC[C@H]3c3ccccc3)CC23CCCC3)cn1', 'Full-length USP19 (Homo sapiens, UniProt O94966)', '< 500 nM'),
  ('O=C(N1CC[C@@](O)(Cn2cnc(-c3cccs3)cc2=O)C2(CCCC2)C1)N1CCNC[C@H]1c1ccccc1', 'Full-length USP19 (Homo sapiens, UniProt O94966)', '< 500 nM'),
  ('CC(Cc1ccccc1)C(=O)N1CCC(O)(CN2CC(Cc3ccccc3)CC2=O)C(C)(C)C1 (centres unmarked)', 'Full-length USP19 (Homo sapiens, UniProt O94966)', '50000 to 250000 nM');

Next item in the queue.
Item O=C(N1CC[C@@](O)(Cn2cnc(-c3ccsc3)cc2=O)C2(CCCC2)C1)N1CCNC[C@H]1c1ccccc1 was tested on Full-length USP19 (Homo sapiens, UniProt O94966); the reported IC50 is < 500 nM

----------
The listing below reports IC50 for compounds tested on Full-length USP19 (Homo sapiens).

Worked examples follow.
INSERT INTO results (compound, endpoint, observed_result) VALUES
  ('CC(CC1CCCCC1)C(=O)N1CCC(O)(CN2C(=O)c3ccccc3C2=O)C(C)(C)C1 (stereo not shown)', 'IC50', '50 to 250 µM'),
  ('C[C@H](CC1CCCCC1)C(=O)N1CCC(O)(CN2C(=O)C(=O)c3ccccc32)C2(CCCC2)C1 (stereo partly shown)', 'IC50', '5 to 50 µM'),
  ('C[C@H](CC1CCCCC1)C(=O)N1CCC(O)(Cn2cc(N=S(C)(C)=O)c(-c3ccccc3)cc2=O)C2(CCCC2)C1 (stereo partly shown)', 'IC50', '< 0.5 µM');

Let us examine a further case.
Entry O=C(N1CCC(C2CC2)C1)N1CCC(O)(Cn2cnc(-c3ccccc3)cc2=O)C2(CCCC2)C1 (stereo not shown) ; IC50 = 5 to 50 µM

----------
- target-desc: UniProt O94966
- Sequence (O94966 1-1318): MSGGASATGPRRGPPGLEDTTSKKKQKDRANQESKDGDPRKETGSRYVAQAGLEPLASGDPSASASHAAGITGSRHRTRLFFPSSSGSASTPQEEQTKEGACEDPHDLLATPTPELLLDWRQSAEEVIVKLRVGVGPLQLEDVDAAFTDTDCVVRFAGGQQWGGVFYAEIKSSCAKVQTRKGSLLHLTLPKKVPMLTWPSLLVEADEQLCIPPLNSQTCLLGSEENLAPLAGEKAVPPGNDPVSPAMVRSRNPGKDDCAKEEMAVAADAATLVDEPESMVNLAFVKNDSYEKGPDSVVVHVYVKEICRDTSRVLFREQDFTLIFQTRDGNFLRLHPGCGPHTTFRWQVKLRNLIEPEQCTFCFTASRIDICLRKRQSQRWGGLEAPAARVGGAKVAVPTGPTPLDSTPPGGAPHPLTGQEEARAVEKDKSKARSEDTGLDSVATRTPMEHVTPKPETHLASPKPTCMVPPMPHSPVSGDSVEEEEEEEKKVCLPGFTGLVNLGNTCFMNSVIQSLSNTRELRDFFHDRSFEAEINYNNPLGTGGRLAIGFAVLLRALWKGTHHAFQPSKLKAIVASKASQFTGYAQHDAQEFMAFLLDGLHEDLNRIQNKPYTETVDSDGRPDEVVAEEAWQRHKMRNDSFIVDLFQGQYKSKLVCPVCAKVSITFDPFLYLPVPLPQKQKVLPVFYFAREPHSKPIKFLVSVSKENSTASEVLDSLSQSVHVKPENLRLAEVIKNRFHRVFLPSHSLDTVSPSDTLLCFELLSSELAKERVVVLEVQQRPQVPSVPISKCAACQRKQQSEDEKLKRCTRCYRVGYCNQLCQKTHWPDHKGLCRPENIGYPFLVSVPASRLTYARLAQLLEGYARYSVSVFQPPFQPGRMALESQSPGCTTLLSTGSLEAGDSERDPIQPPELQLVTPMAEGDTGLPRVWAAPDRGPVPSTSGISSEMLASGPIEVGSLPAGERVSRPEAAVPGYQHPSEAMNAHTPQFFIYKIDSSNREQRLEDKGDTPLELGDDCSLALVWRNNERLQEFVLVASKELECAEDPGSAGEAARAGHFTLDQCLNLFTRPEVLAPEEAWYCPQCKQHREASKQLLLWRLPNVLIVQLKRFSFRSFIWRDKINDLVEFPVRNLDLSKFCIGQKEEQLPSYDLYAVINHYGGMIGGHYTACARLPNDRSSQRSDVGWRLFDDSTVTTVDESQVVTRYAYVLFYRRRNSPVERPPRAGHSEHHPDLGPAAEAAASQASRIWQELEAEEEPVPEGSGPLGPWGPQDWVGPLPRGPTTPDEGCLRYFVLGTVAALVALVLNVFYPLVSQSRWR
endpoint: IC50

Record excerpt, results attached:
INSERT INTO results (molecule, observed_result) VALUES
  ('O=C(N1CC[C@@](O)(Cn2ccc(N3CCCC3)cc2=O)C2(CCCC2)C1)N1CCNC[C@H]1c1ccccc1 [Example 330]', '< 0.5 µM'),
  ('C[S+]([O-])c1cn(CC2(O)CCN(C(=O)N3CCNC[C@H]3c3ccccc3)CC23CCCC3)c(=O)cc1-c1ccccc1 (stereo partly shown) [Example 187]', '< 0.5 µM');

Lab book: IC50 of O=C(NCC1=CCCOC1)N1CCC(O)(Cn2cnc(-c3ccccc3)cc2=O)C2(CCCC2)C1 (stereo not shown) [Example 259] noted as 5 to 50 µM

Per the records, this molecule ( C[C@H](CC1CCCCC1)C(=O)N1CCC(O)(Cn2cc(-c3cccnc3)ncc2=O)C2(CCCC2)C1 (stereo partly shown) [Example 19] ) has IC50 equal to 0.5 to 5 µM

For this molecule ( O=C(N1CCC(O)(Cn2cnc(-c3ccccc3)cc2=O)C2(CCCC2)C1)N1CCCC1C1CC1 (stereo not shown) [Example 264] ), measured IC50 is 0.5 to 5 µM

Record O=C(N1CCC(O)(Cn2cnc(-c3ccccc3)cc2=O)C2(CCCC2)C1)N1CCOCC1CC1CC1 (stereo not shown) [Example 229] , field IC50: 5 to 50 µM

For CC1(C)CCC(N2CCN(CC3(O)CCN(C(=O)NCc4ccccc4)CC34CCCC4)C(=O)C2)CC1 (stereo not shown) [Example 115] the molecule record lists IC50 as 0.5 to 5 µM
